experiment: Cytotoxicity against human THP1 cells by MTT assay; type: toxicity, cell-based, THP-1; settings: THP1 cells
Measured Parameter: GI50

Exercise: Specify reported GI50 for the molecule shown: `C/C(=N\Nc1nc(-c2ccc(C)cc2)cs1)c1sc(C)nc1C`
Key: > 100 µg/mL

Exercise: Read the entry `C/C(=N\Nc1nc(-c2ccccc2)cs1)c1sc(C)nc1C` and write its reported GI50.
Key: > 100 µg/mL

Exercise: For the molecule `C/C(=N\Nc1nc(-c2ccc(C)cc2)cs1)c1sc(-c2ccccc2)nc1C` , give its reported GI50.
Key: > 100 µg/mL

Exercise: Read off the recorded GI50 for `C/C(=N\Nc1nc(-c2ccc(Br)cc2)cs1)c1sc(-c2ccccc2)nc1C`
Key: 48.9 µg/mL

Exercise: Please indicate GI50 recorded for `C/C(=N\Nc1nc(-c2ccc(Cl)cc2)cs1)c1sc(-c2ccccc2)nc1C`
Key: > 100 µg/mL

Exercise: For the molecule `C/C(=N\NC(N)=S)c1sc(C)nc1C` , give its reported GI50.
Key: > 100 µg/mL

Exercise: Write down GI50 measured for item `C/C(=N\Nc1nc(-c2ccccc2)cs1)c1sc(-c2ccccc2)nc1C`
Key: > 100 µg/mL

Exercise: Return reported GI50. Input molecule: `C/C(=N\Nc1nc(-c2ccc(F)cc2)cs1)c1sc(C)nc1C`
Key: > 100 µg/mL

Exercise: Give the reported value of GI50 for this record: `C/C(=N\NC(N)=S)c1sc(-c2ccccc2)nc1C`
Key: 81.5 µg/mL

Exercise: Note GI50 for the molecule shown: `COc1ccc(-c2csc(N/N=C(\C)c3sc(-c4ccccc4)nc3C)n2)cc1`
Key: > 100 µg/mL

Exercise: Complete the entry with GI50 for `COc1ccc(-c2csc(N/N=C(\C)c3sc(C)nc3C)n2)cc1`
Key: > 100 µg/mL

Exercise: Provide one value: measured GI50 of `C/C(=N\Nc1nc(-c2ccc(Cl)cc2)cs1)c1sc(C)nc1C`
Key: > 100 µg/mL

Exercise: Retrieve GI50 measured for `C/C(=N\Nc1nc(-c2ccc(F)cc2)cs1)c1sc(-c2ccccc2)nc1C` and print it.
Key: > 100 µg/mL

Exercise: Provide one value: measured GI50 of `C/C(=N\Nc1nc(-c2ccc(Br)cc2)cs1)c1sc(C)nc1C`
Key: > 100 µg/mL
